TEST TARGET: CYP1A2 (Homo sapiens, UniProt P05177)
Sequence (P05177 2-516 limits assumed): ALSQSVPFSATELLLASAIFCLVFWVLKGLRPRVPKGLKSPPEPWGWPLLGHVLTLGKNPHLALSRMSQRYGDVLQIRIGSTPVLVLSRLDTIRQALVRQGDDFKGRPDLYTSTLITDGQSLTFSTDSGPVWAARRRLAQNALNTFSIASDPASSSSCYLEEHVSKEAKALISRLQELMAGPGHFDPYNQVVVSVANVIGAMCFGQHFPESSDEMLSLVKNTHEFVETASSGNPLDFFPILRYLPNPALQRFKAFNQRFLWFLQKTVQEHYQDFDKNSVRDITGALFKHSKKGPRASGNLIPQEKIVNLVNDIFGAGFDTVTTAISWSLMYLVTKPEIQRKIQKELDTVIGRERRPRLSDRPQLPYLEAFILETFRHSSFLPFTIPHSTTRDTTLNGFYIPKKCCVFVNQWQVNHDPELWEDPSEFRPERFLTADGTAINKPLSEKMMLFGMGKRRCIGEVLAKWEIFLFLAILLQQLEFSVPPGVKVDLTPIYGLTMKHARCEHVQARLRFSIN
MEASUREMENT DESCRIPTION: Time-dependent inhibition (IC50 shift, NADPH pre-incubation)
Format: biochemical
Parameters: purchased Life Technologies
pIC50: −log10 of the molar value.
OUTCOME MEASURE: pIC50

>>> print(df.to_string())
       structure_notation  outcome_measure  recorded_result
0  C[C@H](N)C(=O)c1ccccc1            pIC50             4.12

---

TEST TARGET: CYP2J2 (Homo sapiens, UniProt P51589)
Sequence (P51589 whole entry): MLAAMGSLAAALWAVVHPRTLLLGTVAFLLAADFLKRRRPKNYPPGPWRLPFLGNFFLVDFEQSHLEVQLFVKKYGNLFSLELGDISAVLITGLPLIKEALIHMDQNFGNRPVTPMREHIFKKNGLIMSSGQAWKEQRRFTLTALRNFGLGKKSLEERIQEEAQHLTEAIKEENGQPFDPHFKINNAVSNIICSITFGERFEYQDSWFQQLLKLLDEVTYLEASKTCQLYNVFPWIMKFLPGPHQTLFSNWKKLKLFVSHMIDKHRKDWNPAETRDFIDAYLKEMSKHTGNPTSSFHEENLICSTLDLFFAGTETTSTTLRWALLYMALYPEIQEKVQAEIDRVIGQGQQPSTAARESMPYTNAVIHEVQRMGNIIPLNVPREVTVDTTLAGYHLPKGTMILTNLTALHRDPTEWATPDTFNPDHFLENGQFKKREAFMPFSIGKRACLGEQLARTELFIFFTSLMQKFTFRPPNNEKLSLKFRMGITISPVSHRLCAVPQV
MEASUREMENT DESCRIPTION: Vivid CYP450 fluorescence assay, reversible inhibition
pIC50: −log10 of the molar value.
OUTCOME MEASURE: pIC50

>>> print(df.to_string())
                             compound                            test_target  recorded_result
0  C[C@H](N)C(=O)c1ccccc1 [Cathinone]  CYP2J2 (Homo sapiens, UniProt P51589)             3.79

---

TEST TARGET: UniProtKB P51589
MEASUREMENT DESCRIPTION: Time-dependent inhibition (IC50 shift, NADPH pre-incubation)
Assay type: biochemical
Design: purchased Life Technologies
OUTCOME MEASURE: IC50 (µM)

In [3]: df
Out[3]:
       structure_notation  outcome_measure  unit_symbol  recorded_result
0  C[C@H](N)C(=O)c1ccccc1             IC50           µM              194

Value source: paper PMC9742833
